experiment: small-molecule microarray binders of probe aDKK1, primary screen, biochemical, biotinylated probe, 635/667 nm fluorescence (AID 1099); conditions: higher = more signal;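 further: score merges 667nm spot fluorescence with signal to noise across triplicate slides; reference of the scale not given here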
endpoint label: composite z-score

1) CCOC(=O)[C@H](CC(C)C)NC(=O)CCC1CC(OC(=O)NCc2ccc3c(c2)OCO3)CC2(CCCC(COC(=O)NCCOC)O2)O1 (stereo partly drawn) ... -0.27
2) CC=CC1=C(CO)[C@H](O)[C@H]2O[C@H]2[C@@H]1O ... -0.416
3) CC(C)=NOC(C)CN1CCCCc2nc(C)c(C)cc21 (stereo not drawn) ... -0.261
4) CCCNC(=O)OC[C@H]1O[C@H](CCON=C2c3cc(OC)ccc3O[C@H](c3cccc(OC)c3)[C@H]2O)C=C[C@@H]1Oc1ccc(OC)cc1 ... 0.0079
5) COC(=O)[C@@H]1CC[C@H](C)[C@@H](c2ccc(Br)cc2)N1C[C@@H](O)CN=[N+]=[N-] ... -0.0196
6) C#CCCCON=C1[C@H]2CCn3c(=O)n([C@@H](CC)c4ccccc4)c(=O)n3[C@H]2[C@H](O)[C@@H]2O[C@H]12 ... -0.175
7) COC(=O)[C@H](C)NC(=O)CCC1CC(OC(=O)NCc2cccc3ccccc23)CC2(CCCC(COC(=O)NCCc3ccccc3OC)O2)O1 (stereo partly drawn) ... -0.0471
8) CO[C@@H](C1CCCCC1)[C@@H](C)[C@H](OCc1cccc(Br)c1)[C@@H](C)CO ... -0.359
9) COC(=O)[C@H](C)NC(=O)CCC1CC(OC(=O)NCc2ccc3c(c2)OCO3)CC2(CCCC(COC(=O)NCc3ccccc3)O2)O1 (stereo partly drawn) ... -0.172
10) OC[C@H]1O[C@H](C#Cc2ccccc2)C=C[C@@H]1O ... -0.301
11) COc1ccc(COC(=O)NN=C2C[C@@H](O)[C@@H](O)[C@@H]3[C@@H]4C(=O)N(C[C@@H]5CCCO5)C(=O)[C@@H]4CC[C@H]23)cc1 ... 1
12) CCOC(=O)CCN1C(=O)[C@H]2[C@H]3[C@H](O)[C@H](O)CC(=NO[C@@H]4O[C@H](CO)[C@@H](O)[C@H](O)[C@H]4O)[C@@H]3CC[C@H]2C1=O ... -0.188
13) O=C1[C@H]2[C@H]3[C@H](O)[C@H](O)CC(=NO[C@@H]4O[C@H](CO)[C@@H](O)[C@H](O)[C@H]4O)[C@H]3CC[C@H]2C(=O)N1C[C@@H]1CCCO1 ... -0.273
14) C[C@@H]1CC[C@@H](C(=O)O)N[C@H]1c1cccc(N2CCOCC2)c1 ... -0.191
15) CCN1C(=O)[C@H]2[C@H]3[C@H](O)[C@H](O)CC(=NOCC[C@@H]4C=C[C@H](OC(C)=O)[C@@H](COC(C)=O)O4)[C@@H]3CC[C@H]2C1=O ... -0.107
16) COc1ccc(COC(=O)NN=C2C[C@@H](O)[C@@H](O)[C@@H]3[C@@H]4C(=O)N([C@@H](C)c5ccccc5)C(=O)[C@@H]4CC[C@H]23)cc1 ... -0.121
17) C#CCCCON=C1[C@H]2CCn3c(=O)n(Cc4cc5c(cc4Cl)OCO5)c(=O)n3[C@H]2[C@H](O)[C@@H]2O[C@H]12 ... -0.23
18) CCOC(=O)CCN1C(=O)[C@H]2[C@H]3[C@H](O)[C@H](O)CC(=NOCC(C)C)[C@@H]3CC[C@H]2C1=O ... -0.823

Values compiled from PubChem BioAssay.
